Origin of values: ChEMBL document CHEMBL5726067

TARGET SYSTEM: Aldo-keto reductase family 1 member C3 (Homo sapiens, UniProt P42330)
Sequence (P42330 whole entry, the tested form may be a part): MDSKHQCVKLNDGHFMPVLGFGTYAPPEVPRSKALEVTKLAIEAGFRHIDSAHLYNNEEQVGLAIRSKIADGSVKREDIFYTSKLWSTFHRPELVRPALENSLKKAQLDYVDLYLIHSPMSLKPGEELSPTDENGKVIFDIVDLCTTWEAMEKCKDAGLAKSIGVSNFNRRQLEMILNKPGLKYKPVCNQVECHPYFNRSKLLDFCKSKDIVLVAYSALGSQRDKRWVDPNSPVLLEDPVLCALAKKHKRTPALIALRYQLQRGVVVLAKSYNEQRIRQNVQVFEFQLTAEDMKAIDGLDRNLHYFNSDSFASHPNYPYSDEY
EXPERIMENTAL PROTOCOL: AKR1C3-Inhibitory Activity Assay: The enzyme used was recombinant human AKR1C3 (Aldo-keto reductase family 1 member C3; GenBank Accession No. NM_003739). This was expressed in E. coli as GST (glutathione S transferase) fusion protein and purified by glutathione Sepharose affinity chromatography. The GST was removed by digestion with thrombin and subsequent size exclusion chromatography (Dufort, I., Rheault, P., Huang, X F., Soucy, P., and Luu-The, V., Endocrinology 140, 568-574 (1999)).For the assay, 50 nl of a 100-fold concentrated solution of the test substance in DMSO were pipetted into a black low-volume 384-well microtiter plate (Greiner Bio-One, Frickenhausen, Germany), 2.5 μl of a solution of AKR1C3 in assay buffer [50 mM potassium phosphate buffer pH 7, 1 mM DTT, 0.0022% (w/v) Pluronic F-127, 0.01% BSA (w/v) and protease inhibitor cocktail (Complete, EDTA-free Protease Inhibitor Cocktail from Roche)] were added and the mixture was incubated for 15 min to allow pre-binding of the substances to the enzyme prior to the enzyme reaction. The enzyme reaction was then started by addition of 2.5 μl of a solution of NADPH (20 μM→final concentration in 5 μl of assay volume is 10 μM) and Coumberone (0.6 μM→final concentration in 5 μl of assay volume is 0.3 μM) in assay buffer, and the resulting mixture was incubated at 22° C. for the reaction time of typically 90 min. The concentration of the AKR1C3 and the reaction time was adapted to the respective activity of the enzyme preparation and adjusted such that the assay was carried out in the linear range. Typical AKR1C3 concentrations were in the region of 1 nM. The reaction was stopped by addition of 2.5 μl of a stop solution consisting of 3 μM EM-1404 as inhibitor (U.S. Pat. No. 6,541,463) in 50 mM HEPES pH7.5 (3 μM EM-1404→final concentration in 7.5 μl of assay volume is 1 μM). The fluorescence of the Coumberole was then measured at 520 nm (excitation at 380 nm) using a suitable measuring instrument (Pherastar from BMG Labtechnologies). The intensity of the fluorescence was used as a measure of the amount of Coumberole formed and thus of the enzyme activity of AKR1C3. The data were normalized (enzyme reaction without inhibitor=0% inhibition; all other assay components, but no enzyme=100% inhibition).
QUANTITY MEASURED: IC50 (nM)

P = O=C(c1cnn[nH]1)N1CC2CCC(C1)N2S(=O)(=O)c1ccccc1Cl
Q = O=C(c1cnn[nH]1)N1CC2CCC(C1)N2S(=O)(=O)c1ccccc1Br
INPUT: Sorting ascending by IC50, which comes first: P or Q ? Reply with the label of the item you choose.
OUTPUT: Q
